Would you kindly list pIC50 for each of these compounds?
- System: MM1R
- assay_summary: MTT cell viability assay, myeloma cell line MM1R
- Format: cell-based, human
- reported_conditions: MM1R, MTT, 18 hours, doses 0-50 μM; read-out: IC50, cell viability
Answers are plain numbers, as −log10 of the molar value.

Fill: pIC50 (MM1R) for this compound CS(=O)(=O)O.Cc1c(C(=O)c2cccc3ccccc23)c2cccc3c2n1[C@H](CN1CCOCC1)CO3 [WIN-55]
4.92

---
Please report the measured pIC50 for c1ccc2c(COc3nn(CCN4CCCC4)c4ccccc34)cccc2c1 [PGN17] tested on MM1R.
4.69
